system: neuronal nicotinic acetylcholine receptors in IMR-32 cells; assay: 86Rb+ efflux assay in IMR-32 neuroblastoma cells; type: cell-based, human; details: Table 1; maximal response, percent relative to 100 μM (S)-nicotine
Structures can show the parent of a compound that is named as a salt.
Please mark criterion met if the recorded IMR-32 % max is equal to or greater than 10%, and criterion not met if it falls below.

{"MOLECULE": "CN1CCC[C@H]1c1cc2nc(Cl)c(Br)cc2o1.Cl.Cl", "TESTED_ON": "neuronal nicotinic acetylcholine receptors in IMR-32 cells", "CLASSIFICATION": "criterion not met"}
{"MOLECULE": "Cl.Clc1cc2oc([C@H]3CCCN3)cc2nc1Cl", "TESTED_ON": "neuronal nicotinic acetylcholine receptors in IMR-32 cells", "CLASSIFICATION": "criterion not met"}
{"MOLECULE": "Cl.Cl.c1cc2cc([C@@H]3CCCN3)oc2cn1", "TESTED_ON": "neuronal nicotinic acetylcholine receptors in IMR-32 cells", "CLASSIFICATION": "criterion met"}
{"MOLECULE": "Cl.Clc1cc2oc(C34CCCN3CCC4)cc2nc1Cl", "TESTED_ON": "neuronal nicotinic acetylcholine receptors in IMR-32 cells", "CLASSIFICATION": "criterion met"}
{"MOLECULE": "CN1CCC[C@H]1c1cc2ncc(Cl)cc2o1", "TESTED_ON": "neuronal nicotinic acetylcholine receptors in IMR-32 cells", "CLASSIFICATION": "criterion not met"}
{"MOLECULE": "Cl.Clc1nc2cc([C@H]3CCCN3)oc2cc1Br", "TESTED_ON": "neuronal nicotinic acetylcholine receptors in IMR-32 cells", "CLASSIFICATION": "criterion not met"}
{"MOLECULE": "CN1CCC[C@H]1c1cc2ncccc2o1.Cl.Cl", "TESTED_ON": "neuronal nicotinic acetylcholine receptors in IMR-32 cells", "CLASSIFICATION": "criterion not met"}
{"MOLECULE": "CN1[C@@H]2CC[C@@H](C2)[C@H]1c1cc2ncccc2o1 [Example 42, dihydrochloride]", "TESTED_ON": "neuronal nicotinic acetylcholine receptors in IMR-32 cells", "CLASSIFICATION": "criterion met"}
{"MOLECULE": "Cl.c1cnc2cc(C34CCCN3CCC4)oc2c1", "TESTED_ON": "neuronal nicotinic acetylcholine receptors in IMR-32 cells", "CLASSIFICATION": "criterion met"}
{"MOLECULE": "CN1CCC[C@H]1c1cc2nc(Cl)ccc2o1", "TESTED_ON": "neuronal nicotinic acetylcholine receptors in IMR-32 cells", "CLASSIFICATION": "criterion met"}

---

target: neuronal nicotinic acetylcholine receptors; assay: [3H]-cytisine ligand-receptor binding assay (crude synaptic membranes from whole rat brain); conditions: Table 2; [3H]-cytisine binding; read-out: Binding
pKi: −log10 of the molar value. Where a name gives a salt, the structure may show the parent alone.

{"COMPOUND": "CN1CCC[C@H]1c1cc2ncc(-c3ccccc3)cc2o1 [Example 54]", "pKi": 6.98}
{"COMPOUND": "Fc1ccc2oc([C@H]3C[C@@H]4CC[C@H]3N4)cc2n1 (relative stereo) [Example 136, hydrochloride]", "pKi": 8.62}
{"COMPOUND": "CN1CCC[C@H]1c1cc2cccnc2o1 [Example 134, hydrochloride]", "pKi": 8.16}
{"COMPOUND": "CN1CCC[C@@H]1c1cc2nc(Cl)c(-c3ccccc3)cc2o1 [Example 56, hydrochloride]", "pKi": 7.89}
{"COMPOUND": "Clc1nc2cc([C@H]3CCCN3)oc2cc1-c1ccccc1 [Example 55]", "pKi": 9.80}
{"COMPOUND": "Cl.Nc1cccc(-c2cc3oc([C@H]4CCCN4)cc3nc2Cl)c1 [Example 57, hydrochloride]", "pKi": 9.08}
{"COMPOUND": "Clc1nc2cc([C@H]3CCCN3)oc2cc1C=Cc1ccncc1 [Example 58, hydrochloride]", "pKi": 9.51}
{"COMPOUND": "Clc1ccc2oc([C@H]3C[C@@H]4CC[C@H]3N4)cc2n1 (relative stereo) [Example 135, hydrochloride]", "pKi": 8.49}
{"COMPOUND": "c1ccc(-c2cnc3cc([C@@H]4CCCN4)oc3c2)cc1 [Example 53, dihydrochloride]", "pKi": 6.47}

---

biological target: α4 and β2 nicotinic acetylcholine subunits (K177 cells) (Homo sapiens, UniProt P17787+P43681); construct: expressed in transfected cells; assay: 86Rb+ efflux assay in K177 cells (HEK 293 stably transfected with α4 and β2 nicotinic acetylcholine subunits); format: cell-based; details: K177; Table 1; inhibition of efflux elicited by 100 μM (S)-nicotine; 10 μM; read-out: K177 % Inhibition @ 10 μM
Sequence (P43681 29-627 limits assumed): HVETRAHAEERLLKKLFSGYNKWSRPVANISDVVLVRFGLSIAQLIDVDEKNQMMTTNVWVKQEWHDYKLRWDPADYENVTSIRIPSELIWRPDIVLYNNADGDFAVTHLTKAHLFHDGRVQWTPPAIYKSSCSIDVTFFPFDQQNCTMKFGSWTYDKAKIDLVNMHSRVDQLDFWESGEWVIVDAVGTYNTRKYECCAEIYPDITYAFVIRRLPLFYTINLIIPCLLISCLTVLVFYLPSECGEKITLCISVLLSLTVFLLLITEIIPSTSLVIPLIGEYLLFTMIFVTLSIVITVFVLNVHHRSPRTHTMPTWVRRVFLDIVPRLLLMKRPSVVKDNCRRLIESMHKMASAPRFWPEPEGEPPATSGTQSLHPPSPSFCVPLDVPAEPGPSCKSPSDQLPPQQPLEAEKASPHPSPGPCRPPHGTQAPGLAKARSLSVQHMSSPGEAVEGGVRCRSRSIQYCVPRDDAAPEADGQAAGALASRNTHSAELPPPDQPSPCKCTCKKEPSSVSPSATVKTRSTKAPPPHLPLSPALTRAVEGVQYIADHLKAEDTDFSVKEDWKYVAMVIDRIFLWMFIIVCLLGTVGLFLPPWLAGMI
Sequence (P17787 26-502): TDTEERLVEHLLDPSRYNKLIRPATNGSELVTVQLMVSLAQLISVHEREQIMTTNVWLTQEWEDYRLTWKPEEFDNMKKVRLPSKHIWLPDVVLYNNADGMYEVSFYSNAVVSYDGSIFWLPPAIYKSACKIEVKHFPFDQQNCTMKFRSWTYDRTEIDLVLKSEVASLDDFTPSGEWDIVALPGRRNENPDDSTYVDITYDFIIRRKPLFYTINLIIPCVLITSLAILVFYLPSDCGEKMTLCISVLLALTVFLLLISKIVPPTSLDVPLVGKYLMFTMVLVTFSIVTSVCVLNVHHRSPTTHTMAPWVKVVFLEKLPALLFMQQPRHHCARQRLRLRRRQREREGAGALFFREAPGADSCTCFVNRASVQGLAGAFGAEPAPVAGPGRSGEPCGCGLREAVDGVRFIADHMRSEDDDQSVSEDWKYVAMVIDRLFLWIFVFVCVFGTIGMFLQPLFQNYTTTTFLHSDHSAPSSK
Structures can show the parent of a compound that is named as a salt.
REPORTED_METRIC: inhibition at 10 µM (%)

{"MOLECULE": "c1cnc2cc(C34CCCN3CCC4)sc2c1 [Example 24, hydrochloride]", "REPORTED_METRIC": "inhibition at 10 µM", "MEASURED_VALUE": 60}
{"MOLECULE": "Clc1cnc2cc([C@H]3CCCN3)oc2c1 [Example 31, hydrochloride]", "REPORTED_METRIC": "inhibition at 10 µM", "MEASURED_VALUE": 41}
{"MOLECULE": "Cc1ccc2oc([C@H]3CCCN3)cc2n1.Cl [Example 29, hydrochloride]", "REPORTED_METRIC": "inhibition at 10 µM", "MEASURED_VALUE": 28}
{"MOLECULE": "CN1CCC[C@H]1c1cc2nc(Cl)c(Cl)cc2o1.Cl [Example 26, hydrochloride]", "REPORTED_METRIC": "inhibition at 10 µM", "MEASURED_VALUE": 53}

---

system: neuronal nicotinic acetylcholine receptors in IMR-32 cells; test: 86Rb+ efflux assay in IMR-32 neuroblastoma cells; type: cell-based, human; settings: Table 1; maximal response, percent relative to 100 μM (S)-nicotine
Structures can show the parent of a compound that is named as a salt.
Measured IMR-32 % max values are reported for all entries that follow.

{"COMPOUND": "Brc1ccc2oc([C@H]3CCCN3)cc2n1 [Example 33, hydrochloride]", "UNIT_OF_MEASURE": "%", "IMR-32 % max": 0}
{"COMPOUND": "Cc1ccc2oc(C34CCCN3CCC4)cc2n1 [Example 16]", "UNIT_OF_MEASURE": "%", "IMR-32 % max": 0}
{"COMPOUND": "c1cnc2cc([C@H]3C[C@@H]4CC[C@H]3N4)oc2c1 (relative stereo) [Example 52, dihydrochloride]", "UNIT_OF_MEASURE": "%", "IMR-32 % max": 69}
{"COMPOUND": "Cl.Cl.c1cnc2cc([C@H]3CCCN3)oc2c1 [Example 3]", "UNIT_OF_MEASURE": "%", "IMR-32 % max": 58}
{"COMPOUND": "CN1CCC[C@H]1c1cc2nc(Cl)c(Cl)cc2o1.Cl [Example 26]", "UNIT_OF_MEASURE": "%", "IMR-32 % max": 7}
{"COMPOUND": "c1cnc2cc([C@@H]3CC[C@@H]4CCCN43)oc2c1 [Example 21, dihydrochloride]", "UNIT_OF_MEASURE": "%", "IMR-32 % max": 0}

---

target: neuronal nicotinic acetylcholine receptors; test: [3H]-cytisine ligand-receptor binding assay (crude synaptic membranes from whole rat brain); conditions: Table 1; [3H]-cytisine 1.25 nM, 4° C., 60 min; Ki by Cheng and Prusoff; read-out: [^3 H]-Cyt Binding
Structures can show the parent of a compound that is named as a salt.
Lab note: compare Ki with 400 nM, writing rule met if less and rule not met if equal or more.

{"COMPOUND": "Cl.Cl.c1cc2cc([C@H]3CCCN3)oc2cn1 [Example 34, dihydrochloride]", "CLASSIFICATION": "rule not met"}
{"COMPOUND": "Clc1ccc2oc([C@@H]3CCCN3)cc2n1 [Example 11, hydrochloride]", "CLASSIFICATION": "rule met"}
{"COMPOUND": "Cl.c1cnc2cc(C34CCCN3CCC4)oc2c1 [Example 15, hydrochloride]", "CLASSIFICATION": "rule met"}
{"COMPOUND": "c1cnc2oc([C@@H]3CCCN3)cc2c1 [Example 36, hydrochloride]", "CLASSIFICATION": "rule not met"}
{"COMPOUND": "CN1CCC[C@H]1c1cc2nccc(Cl)c2o1 [Example 51, hydrochloride]", "CLASSIFICATION": "rule not met"}
{"COMPOUND": "Clc1ccc2oc([C@H]3N[C@@H]4CC[C@H]3C4)cc2n1 [Example 43, dihydrochloride]", "CLASSIFICATION": "rule not met"}
{"COMPOUND": "Cc1ccc2oc(C34CCCN3CCC4)cc2n1", "CLASSIFICATION": "rule met"}
{"COMPOUND": "c1cnc2cc(CN3CCCC3)oc2c1", "CLASSIFICATION": "rule met"}
{"COMPOUND": "c1cnc2cc([C@H]3N[C@@H]4CC[C@H]3C4)oc2c1 [Example 41, dihydrochloride]", "CLASSIFICATION": "rule met"}
{"COMPOUND": "Brc1cnc2cc([C@@H]3CCCN3)oc2c1 [Example 46, dihydrochloride]", "CLASSIFICATION": "rule not met"}
{"COMPOUND": "Clc1cnc2cc([C@@H]3CCCN3)oc2c1 [Example 7, dihydrochloride]", "CLASSIFICATION": "rule not met"}
{"COMPOUND": "Brc1ccc2oc([C@@H]3CCCN3)cc2n1.Cl [Example 28, hydrochloride]", "CLASSIFICATION": "rule met"}
{"COMPOUND": "c1cnc2cc([C@H]3C[C@@H]4CC[C@H]3N4)oc2c1 (relative stereo) [Example 52, dihydrochloride]", "CLASSIFICATION": "rule met"}
{"COMPOUND": "Clc1ccc2oc(C34CCCN3CCC4)cc2n1", "CLASSIFICATION": "rule met"}
{"COMPOUND": "c1cnc2cc([C@@H]3CC[C@@H]4CCCN43)oc2c1 [Example 21, dihydrochloride]", "CLASSIFICATION": "rule not met"}
{"COMPOUND": "CN1CCC[C@H]1c1cc2nc(Cl)c(Cl)cc2o1.Cl [Example 26, hydrochloride]", "CLASSIFICATION": "rule met"}
{"COMPOUND": "Cc1ccc2oc([C@@H]3CCCN3)cc2n1 [Example 5, dihydrochloride]", "CLASSIFICATION": "rule met"}
{"COMPOUND": "c1cnc2cc([C@@H]3CC[C@H]4CCCN43)oc2c1 [Example 19, dihydrochloride]", "CLASSIFICATION": "rule not met"}
{"COMPOUND": "c1cnc2cc([C@H]3CC[C@H]4CCCN43)oc2c1 [Example 18, dihydrochloride]", "CLASSIFICATION": "rule met"}
{"COMPOUND": "Cc1ccc2oc([C@@H]3CCCN3C)cc2n1.Cl.Cl [Example 6, dihydrochloride]", "CLASSIFICATION": "rule met"}
